system: NCI-H460 lung; assay: NCI-60 one-dose screen, 48 h; details: 10 µM unless noted
This is part of a sample that, as a whole, favours compounds with a hit. Of some 83,000 tested, about 20% had one in any assay. Calls of active or inactive are those of the source. Rule for the calls: active = growth percent below 10; inactive = the rest.
Classes used: 1.0 = active, 0.0 = inactive

# compound, class_assignment
records = [
    ("O=C(CSc1nc2sc3c(c2c(=O)n1-c1ccc(Cl)cc1)CCCC3)Nc1nc(-c2cccc(Br)c2)cs1", 0.0),
    ("CCOC(=O)c1ccc2c(c1)ncn2-c1ccc(NC(=O)Nc2cccc(C)c2)cc1", 0.0),
    ("COc1ccccc1/C(C)=N/NC(=O)CSc1nc2ccccc2c(=O)n1Cc1ccc(S(N)(=O)=O)cc1", 0.0),
    ("CCN(CC)CCOc1ccc(NC(=O)C(C(C)C)N2C(=O)/C(=C/c3ccc(Br)cc3)SC2=S)cc1 (centres undefined)", 0.0),
    ("CCCCCCCCCCCCCCCC[N+]1(C)CCN(SN2CC[N+](C)(CCCCCCCCCCCCCCCC)CC2)CC1", 0.0),
    ("CCCCCN1C=C/C(=C\\C(=O)n2ccc3ccccc32)c2ccccc21", 0.0),
    ("C=C(C)[C@@H]1CC[C@]2(CN)CC[C@]3(C)[C@H](CC[C@@H]4[C@@]5(C)CCCNC(C)(C)[C@@H]5CC[C@]43C)[C@@H]12", 1.0),
    ("COC(=O)C1=C(C(=O)ON)[C@@H]2C=C[C@@]1([C@@H](Cc1ccccc1)Nc1ccccc1)O2", 0.0),
    ("COc1cc2oc(-c3cccc(C(=O)Nc4ccccc4)c3)cc(=O)c2c(O)c1OC", 0.0),
    ("CCCCCCNC(=O)Oc1ccc(/C(=C(\\C)c2ccccc2)c2ccc(OCCCN(C)C)cc2)cc1", 0.0),
    ("Cc1cccc(C)c1N=c1oc2ccc(Cl)cc2nc1-c1ccccc1O", 0.0),
    ("Oc1ccc(OCCOc2ccc(O)cc2)cc1", 0.0),
    ("CCOC(=O)[C@@H]1CCCN(S(=O)(=O)c2ccc(S(=O)(=O)N(CC)CC)c(F)c2)C1", 0.0),
    ("O=C(CCN1CCCC1)Nc1ccc2c(NCCc3ccccc3)c3ccccc3nc2c1", 1.0),
    ("CCOc1ccc(/C=N/Nc2cc(C)nc3ccc(Br)cc23)cc1", 0.0),
    ("O=C(/C=C/c1ccc[nH]1)c1ccc(-n2ccc(C(F)(F)F)n2)c(F)c1", 0.0),
    ("CN1CCN(C(=O)[C@]23CCC(C)(C)C[C@H]2C2=CC[C@@H]4[C@@]5(C)C/C(=C/c6cccnc6)C(=O)C(C)(C)[C@@H]5CC[C@@]4(C)[C@]2(C)CC3)CC1", 0.0),
    ("CC(C)(C)[Si](C)(C)OC1[C@@H](O[Si](C)(C)C(C)(C)C)[C@@H](CNC(=O)NC(=O)CCl)O[C@H]1n1cnc2c(NC(=O)Nc3ccccc3)ncnc21 (some centres undefined)", 0.0),
    ("C=C1C(=O)O[C@H]2[C@H]1CC/C(CNC(=O)C(C)c1ccc(CC(C)C)cc1)=C\\CC[C@@]1(C)O[C@@H]21 (some centres undefined)", 0.0),
]
